# target_under_test: Eukaryotic translation initiation factor 4E (Mus musculus)
# Sequence (P63073 whole entry): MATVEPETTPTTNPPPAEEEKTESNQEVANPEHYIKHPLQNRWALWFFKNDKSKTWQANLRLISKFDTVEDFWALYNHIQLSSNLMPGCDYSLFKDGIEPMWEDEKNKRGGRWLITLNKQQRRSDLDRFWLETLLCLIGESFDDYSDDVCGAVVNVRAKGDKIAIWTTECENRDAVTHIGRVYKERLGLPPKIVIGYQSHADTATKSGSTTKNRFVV
# assay_method_text: eIF4E–eIF4G protein interaction inhibitors, dose response, biochemical, TR-FRET (AID 855);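 further: potency for disrupting eIF4E binding to eIF4GI seen as loss of FRET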
# Assay type: functional
Active and inactive are the calls of the source.
property_label: IC50

So what's the measured IC50 for this one? `CCN1CCN(CCNC(=O)c2ccc(/C=C3/Sc4ccccc4N(Cc4cccc(Cl)c4)C3=O)cc2)CC1`
50 µM (inactive)

So what's the measured IC50 for this one? `O=C(c1ccccc1)N(Nc1ccccc1)c1ccccc1`
50 µM (inactive)

So what's the measured IC50 for this one? `CCCN(CCC)S(=O)(=O)c1ccc(C(=O)OCCN2C(=O)c3cccc4c(N5CCOCC5)ccc(c34)C2=O)cc1`
> 64 µM (inactive)

So what's the measured IC50 for this one? `COc1ccc(OC)c(S(=O)(=O)N2CCN(c3c(C)cccc3C)CC2)c1`
> 64 µM (inactive)

---

# target_under_test: High affinity choline transporter 1 (Homo sapiens, UniProt Q9GZV3)
# Sequence (Q9GZV3 whole entry): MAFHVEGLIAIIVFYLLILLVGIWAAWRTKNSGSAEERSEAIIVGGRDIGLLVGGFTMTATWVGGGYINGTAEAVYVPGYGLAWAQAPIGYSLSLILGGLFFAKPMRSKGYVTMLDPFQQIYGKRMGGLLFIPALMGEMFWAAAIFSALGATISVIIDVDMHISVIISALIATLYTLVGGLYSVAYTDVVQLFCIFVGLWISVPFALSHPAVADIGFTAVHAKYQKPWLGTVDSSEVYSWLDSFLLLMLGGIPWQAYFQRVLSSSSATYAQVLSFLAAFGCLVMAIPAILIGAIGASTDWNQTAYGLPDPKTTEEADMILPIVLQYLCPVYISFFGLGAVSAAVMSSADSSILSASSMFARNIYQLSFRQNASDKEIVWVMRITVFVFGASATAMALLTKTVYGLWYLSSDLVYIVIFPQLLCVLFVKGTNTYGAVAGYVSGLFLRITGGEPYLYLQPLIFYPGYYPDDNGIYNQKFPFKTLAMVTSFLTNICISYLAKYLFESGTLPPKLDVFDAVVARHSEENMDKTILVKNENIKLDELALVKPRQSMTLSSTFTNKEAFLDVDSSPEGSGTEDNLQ
# assay_method_text: CHT inhibitors, dose response, cell-based, 5-point CRC, membrane potential dye (AID 504840)
# Assay type: functional
The source made the active and inactive calls.
property_label: IC50

High affinity choline transporter 1 (Homo sapiens, UniProt Q9GZV3) / IC50 / `CCCc1cc(C(=O)NN=C(S)NCc2ccccc2)cs1` : value?
12.9 µM (active)

High affinity choline transporter 1 (Homo sapiens, UniProt Q9GZV3) / IC50 / `CNc1nc(SC)nc2ccsc12` : value?
0.743 µM (active)

High affinity choline transporter 1 (Homo sapiens, UniProt Q9GZV3) / IC50 / `C/C(=N\NC(=N)N)c1ccccc1` : value?
13.5 µM (active)

High affinity choline transporter 1 (Homo sapiens, UniProt Q9GZV3) / IC50 / `N#Cc1nc(Cc2cccc3ccccc23)oc1NCCCN1CCOCC1` : value?
3.8 µM (active)

High affinity choline transporter 1 (Homo sapiens, UniProt Q9GZV3) / IC50 / `COc1ccc(/C=C2\N=C(c3ccccc3)N(c3ccc(C(=O)O)cc3)C2=O)cc1OC` : value?
12.6 µM (active)

High affinity choline transporter 1 (Homo sapiens, UniProt Q9GZV3) / IC50 / `Cc1nc(SCC(=O)NC(=O)NC2CCCCC2)nc(C)c1C` : value?
12.7 µM (active)

High affinity choline transporter 1 (Homo sapiens, UniProt Q9GZV3) / IC50 / CC1CCC/C=C/C2CC(O)CC2C(O)/C=C/C(=O)O1 (stereo not drawn) : value?
1.87 µM (active)

High affinity choline transporter 1 (Homo sapiens, UniProt Q9GZV3) / IC50 / CC(=O)N(C)c1ccc(OCC(O)CN(c2ccccc2C)S(=O)(=O)c2ccc(C)cc2)cc1 (stereo not drawn) : value?
11.8 µM (active)

---

# target_under_test: RNA-binding protein pos-1 (Caenorhabditis elegans)
# Sequence (G5EF15 whole entry): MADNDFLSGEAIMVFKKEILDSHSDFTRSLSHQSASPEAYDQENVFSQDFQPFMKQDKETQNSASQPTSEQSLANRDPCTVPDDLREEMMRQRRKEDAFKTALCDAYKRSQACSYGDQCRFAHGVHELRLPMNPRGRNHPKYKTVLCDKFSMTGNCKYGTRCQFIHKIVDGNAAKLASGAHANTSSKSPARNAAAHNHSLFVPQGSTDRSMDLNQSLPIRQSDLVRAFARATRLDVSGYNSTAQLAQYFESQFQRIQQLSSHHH
# assay_method_text: inhibitors of POS-1/mex-3 RNA binding, dose response, biochemical, fluorescence polarization (AID 1964);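 further: purified POS-1 fused to maltose binding protein made in E. coli; potency of compounds blocking POS-1 binding to fluorescent RNA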
Active and inactive are the calls of the source.
So I've got a bunch of compounds here, and I need their EC50 values.

So what's the measured EC50 for this one? `O=C1NC(=O)N(Cc2ccc(F)cc2)C(=O)/C1=C/NNC(=O)c1ccccc1O`
10.1 µM (active)

So what's the measured EC50 for this one? COc1ccc(C2C(C#N)=C(N)OC3=C2C(=O)CC(C)(C)C3)cc1OC (stereo unspecified)
> 300 µM (not active)

So what's the measured EC50 for this one? `Cc1cc2oc(=O)c(CC(=O)NCCCO)c(C)c2c2occ(C(C)(C)C)c12`
> 300 µM (not active)

So what's the measured EC50 for this one? CCCCC1=CC2=C(c3ccco3)C(=O)C(C)(OC(=O)c3ccc(OC)cc3)C(=O)C2=CN1C1CCCC1 (stereo unspecified)
16 µM (active)

So what's the measured EC50 for this one? `Nc1c(C(=O)c2ccc(Cl)cc2)sc2nsc(SCCN3CCOCC3)c12`
> 300 µM (not active)

So what's the measured EC50 for this one? `COc1ccccc1NC(=O)c1sc2nc(Cc3ccccc3)cc(C(F)(F)F)c2c1N`
9.55 µM (inconclusive)

So what's the measured EC50 for this one? `OC1=C2Sc3ccc(Cl)cc3N=C2CCC1`
18.4 µM (active)

So what's the measured EC50 for this one? COc1ccc2c3c([nH]c2c1)C1CC2C(CC(O)C(OC)C2C(=O)O)CN1CC3 (stereo unspecified)
> 300 µM (not active)

So what's the measured EC50 for this one? `COc1cc(C(c2c(C(=O)O)[nH]c3ccccc23)c2c(C(=O)O)[nH]c3ccccc23)ccc1OCc1ccccc1`
47.7 µM (active)

So what's the measured EC50 for this one? `COc1ccc(N2C(=O)NC(=O)/C(=C\c3cn(C)c4ccccc34)C2=O)cc1`
1.05 µM (active)

So what's the measured EC50 for this one? `CC(=O)Nc1ccc(S(=O)(=O)NNC(=O)C(=O)NNc2ccccn2)cc1`
> 300 µM (not active)
